Measured Test 3 (mmHg, 100 mpk): average of the peak decrease in systolic blood pressure of individual entries
System: spontaneously hypertensive rats
protocol: Spontaneously Hypertensive Rat Test (Test 3)
Format: in vivo
conditions: 100 mg/kg body weight, four male spontaneously hypertensive rats, indirect tail-cuff method
parameter measured: Test 3 (mmHg, 100 mpk): average of the peak decrease in systolic blood pressure (mmHg)

- molecule: "CC1=C(C(=O)OCCN(C)Cc2ccccc2)C(c2cc(Cl)cc(Cl)c2)c2c(n(C)c(=O)n(C)c2=O)N1 (stereo not shown) [XIX]"
  measured: -37
- molecule: "CC1=C(C(=O)OCCN(C)Cc2ccccc2)C(c2cccc([N+](=O)[O-])c2)c2c(n(C)c(=O)n(C)c2=O)N1 (stereo not shown) [IV]"
  measured: -28
- molecule: "CC1=C(C(=O)OCCN(C)Cc2ccccc2)C(c2cccc(C(F)(F)F)c2)c2c(n(C)c(=O)n(C)c2=O)N1 (stereo not shown) [XVIII]"
  measured: -37
- molecule: "COC(=O)C1=C(C)Nc2c(c(=O)n(C)c(=O)n2C)C1c1ccco1 (stereo not shown) [Example XV]"
  measured: -22

# credit: patent US4596805A
